target: human IL12Rβ1, cell-expressed (human, UniProt P42701 24-662); assay: cell-based or functional assay
readout.type: fold ctrl, IL-17 release (fold)

| binder | readout.type | value |
| --- | --- | --- |
| IL12Rb1#30-35GS-CD4#8 (bispecific antibody, also called BI#46; T023200046) EVQLVESGGGLVQTGGSLRLSCAASGRTPRLVAMGWFRQTPGKEREFVGEIILSKGFTYYADSVKGRFTISRVNAKNTITMYLQMNSLKSEDTAVYYCAGRQNWSGSPARTNEYEYWGQGTLVTVSSGGGGSGGGGSGGGGSGGGGSGGGGSGGGGSGGGGSEVQLVESGGGSVQPGGSLTLSCGTSGRTFNVMGWFRQAPGKEREFVAAVRWSSTGIYYTQYADSVKSRFTISRDNAKNTVYLEMNSLKPEDTAVYYCAADTYNSNPARWDGYDFRGQGTLVTVSS | fold ctrl, IL-17 release | 875 |
| CD4#8-35GS-IL12Rb1#30 (bispecific antibody, also called BI#40; T023200040) EVQLVESGGGSVQPGGSLTLSCGTSGRTFNVMGWFRQAPGKEREFVAAVRWSSTGIYYTQYADSVKSRFTISRDNAKNTVYLEMNSLKPEDTAVYYCAADTYNSNPARWDGYDFRGQGTLVTVSSGGGGSGGGGSGGGGSGGGGSGGGGSGGGGSGGGGSEVQLVESGGGLVQTGGSLRLSCAASGRTPRLVAMGWFRQTPGKEREFVGEIILSKGFTYYADSVKGRFTISRVNAKNTITMYLQMNSLKSEDTAVYYCAGRQNWSGSPARTNEYEYWGQGTLVTVSS | fold ctrl, IL-17 release | 1630 |
| IL12Rb1#31-35GS-CD4#8 (bispecific antibody, also called BI#47; T023200047) EVQLVESGGGLVQTGGSLRLSCAASGRTPSIIAMGWFRQTPGKEREFVGEIILSKGFTYYADSVKGRFTISRANAKNTITMYLQMNSLKSEDTAVYYCAARQNWSGNPTRTNEYEYWGQGTLVTVSSGGGGSGGGGSGGGGSGGGGSGGGGSGGGGSGGGGSEVQLVESGGGSVQPGGSLTLSCGTSGRTFNVMGWFRQAPGKEREFVAAVRWSSTGIYYTQYADSVKSRFTISRDNAKNTVYLEMNSLKPEDTAVYYCAADTYNSNPARWDGYDFRGQGTLVTVSS | fold ctrl, IL-17 release | 565 |
